ASSAY PROCEDURE: collision cross section of modified peptide (TIMS, N2, iRT-aligned); higher = larger / more extended gas-phase ion
MEASUREMENT PARAMETERS: charge state: 2; modification: Propionyl
± gives the standard deviation.
ASSAY METRIC: collision cross section

POLYMER SEQUENCE | ASSAY METRIC | RESULT
IISSIEQKEENK [_IISSIEQK(Propionyl)EENK_] | collision cross section | 403.07 ± 0.65 Å²
DTPTSAGPNSFNKGK [_DTPTSAGPNSFNK(Propionyl)GK_] | collision cross section | 410.13 ± 0.64 Å²
ALASIDSKLNQAK [_ALASIDSK(Propionyl)LNQAK_] | collision cross section | 398.32 Å²
SNEEGSEEKGPEVR [_SNEEGSEEK(Propionyl)GPEVR_] | collision cross section | 404.8 ± 1.3 Å²
GFALVGVGSEASSKK [_GFALVGVGSEASSK(Propionyl)K_] | collision cross section | 411.51 Å²
LEEVTGKLQVAR [_LEEVTGK(Propionyl)LQVAR_] | collision cross section | 394.4 ± 1.3 Å²
ASDTSSETVFGKR [_ASDTSSETVFGK(Propionyl)R_] | collision cross section | 398.28 ± 0.65 Å²
SSGPGGQNVNKVNSK [_SSGPGGQNVNK(Propionyl)VNSK_] | collision cross section | 404.47 ± 0.49 Å²
IVSGKDYNVTANSK [_IVSGK(Propionyl)DYNVTANSK_] | collision cross section | 411.4 ± 0.64 Å²

Cited source for all entries: the supplement of paper PMC10598134
